Molecular target: human IGF-1R on FDCP-2 cells (human, UniProt P08069 31-1367)
Assay: cell-based or functional assay
No end group written: not given here.

binder	Ki/ED50
WLDQERAWLWCEISGRGCLSGGSGGSGGSGGSGSLDESFYDWFERQLGKK (not fully specified (bridges); cysteine pairing not given here, Site 2-Site 1 dimer peptide, recombinant; also called D815-RP9 (12 aa linker); D815-12-RP9) [D815-12aa-RP9]	0.0003
GSLDESFYDWFERQLG (also called RP9 minus terminal lysines) [RP9]	0.5
GIISQSCPESFYDWFAGQVSDPWWCW (Recombinant form) [recombinant peptide surrogate G33 (rG33)]	2.9
WLDQERAWLWCEISGRGCLSGGSGGSGSLDESFYDWFERQLGKK (Site 2-Site 1 dimer peptide, recombinant; also called D815-RP9 (6 aa linker); D815-6-RP9) [D815-6aa-RP9]	0.8
